System: MV-4-11
Assay: Oncology cell growth assay MV-4-11 (CellTiter Glo, 72 hours)
Type: cell-based
Details: Homo sapiens, MV4-11, 72 h; MV-4-11 cell growth inhibitory activity, 3d
endpoint: IC50

Cc1noc(C)c1-c1cnc2c(-c3cnn(C(F)F)c3)cn(C(C)c3ccccc3)c2c1 (stereo not drawn)	≤ 1 µM
Cc1noc(C)c1-c1cnc2c(-c3cnn(C)c3)cn(S(=O)(=O)c3ccc(F)cc3)c2c1	≤ 1 µM
COCCn1cc(-c2cn(S(=O)(=O)C3CCCC3)c3cc(-c4c(C)noc4C)cnc23)cn1	≤ 1 µM
Cc1noc(C)c1-c1cnc2[nH]cc(C(O)c3ccccc3Cl)c2c1 (stereo not drawn)	≤ 1 µM
Cc1noc(C)c1-c1cnc2c(c1)c(S(=O)(=O)c1ccccc1)cn2C1COC1	1 to 10 µM

Which measured IC50 value corresponds to Cc1noc(C)c1-c1cnc2[nH]cc(C(O)c3ccc(OCC(F)(F)F)nc3)c2c1 (stereo not drawn) ? 1 to 10 µM

One more compound: Cc1noc(C)c1-c1cnc2[nH]cc(C(O)c3c(F)cccc3Cl)c2c1 (stereo not drawn) ≤ 1 µM

One more compound: CCC(c1cn(C)c2ncc(-c3c(C)noc3C)cc12)C1CCC(F)(F)CC1 (stereo not drawn) ≤ 1 µM

One more compound: `Cc1noc(C)c1-c1cnc2c(I)cn(S(=O)(=O)c3ccccc3)c2c1` ≤ 1 µM

One more compound: `Cc1noc(C)c1-c1cnc2c(C#CCF)cn(S(=O)(=O)c3ccccc3)c2c1` ≤ 1 µM

One more compound: CCc1[nH]c2ncc(-c3c(C)noc3C)cc2c1C(OC)C1CCC(F)(F)CC1 (stereo not drawn) ≤ 1 µM

One more compound: `Cc1noc(C)c1-c1cnc2[nH]cc(Cc3ccccc3Cl)c2c1` 1 to 10 µM

One more compound: `Cc1noc(C)c1-c1cnc2c(c1)c(CC1CCN(C(=O)C(F)(F)F)CC1)cn2C` ≤ 1 µM

###

System: MV-4-11
Experiment: Oncology cell growth assay MV-4-11 (CellTiter Glo, 72 hours)
Format: cell-based
Conditions: Homo sapiens, MV4-11, 72 h; MV-4-11 cell growth inhibitory activity, 3d
Entries annotated with measured IC50

Cc1noc(C)c1-c1cnc2c(-c3cnn(C(F)F)c3)cn(S(=O)(=O)c3ccccc3F)c2c1	≤ 1 µM

Which measured IC50 value corresponds to `C=CCn1cc(-c2cn(S(=O)(=O)c3ccccc3F)c3cc(-c4c(C)noc4C)cnc23)cn1` ? ≤ 1 µM

One more compound: Cc1noc(C)c1-c1cnc2c(c1)c(S(=O)(=O)c1ccccc1)cn2C1CCOC1 (centres unmarked) ≤ 1 µM

One more compound: Cc1noc(C)c1-c1cnc2c(-c3cnn(C)c3)cn(C(CO)c3ccccc3)c2c1 (centres unmarked) ≤ 1 µM

One more compound: `CC(=O)N1CCC(Cc2cn(C)c3ncc(-c4c(C)noc4C)cc23)CC1` 1 to 10 µM

One more compound: `Cc1noc(C)c1-c1cnc2ccn(S(=O)(=O)c3ccccc3)c2c1` ≤ 1 µM

One more compound: Cc1noc(C)c1-c1cnc2c(-c3cc(C(F)(F)F)n[nH]3)cn(C(C)c3ccccc3)c2c1 (centres unmarked) ≤ 1 µM

One more compound: `Cc1noc(C)c1-c1cnc2c(CCC(=O)O)cn(S(=O)(=O)c3ccccc3)c2c1` 1 to 10 µM

###

Entries annotated with measured IC50
Biological target: BRD4-BD1 (44-164) (Homo sapiens, UniProt O60885)
Construct: BRD4-BD1 (44-164); made in house; host or cells: E. coli BL21-CodonPlus (DE3)
Assay: Alphascreen binding assay BRD4-BD1 (BRD4 biochemical inhibitory activity)
Conditions: read-out: Biochemical activity (IC50 μM) BRD4(1) H4

The examples below pair each entry with its known result.
Cc1noc(C)c1-c1cnc2c(c1)c(C(O)C1CCS(=O)(=O)CC1)cn2S(=O)(=O)c1ccccc1 (stereo not shown) [P-0094]	1 to 10 µM
CCCCC(c1cn(C)c2ncc(-c3c(C)noc3C)cc12)C1CCC(F)(F)CC1 (stereo not shown) [P-0109]	≤ 1 µM
Cc1nc(-c2cn(S(=O)(=O)c3ccccc3)c3cc(-c4c(C)noc4C)cnc23)cs1 [P-0191]	1 to 10 µM

Would you kindly look at the next entry?
Which measured IC50 value corresponds to Cc1noc(C)c1-c1cnc2[nH]cc(C(=O)c3cccnc3)c2c1 [P-0004] ? 1 to 10 µM
